Test system: C. sporogenes CBC5
Assay: Deferred antagonism assay
Format: cell-based, Clostridium sporogenes
Design: key: + = Enhanced bioactivity relative to control; − = Bioactivity equal to or less than control; NA = no activity evident
Conditions: producing strain
Ends that are not written are not given here.
Measured property: Bioactivity relative to control

* M21C: nisin A derivative, hinge substitution M21C (ITSISLCTPGCKTGALMGCNCKTATCHCSIHVSK; cysteine pairing not given here; also: lantibiotic nisin-A; UniProt P13068 24-57, looked up, variant M21C) | −
* NisinA N20H (ITSISLCTPGCKTGALMGCHMKTATCHCSIHVSK; not fully specified; also: lantibiotic nisin: dehydrated residues and thioether rings not placed; UniProt P13068 24-57, looked up, variant N20H) [nisin A derivative, hinge substitution N20H] | +

Values were extracted from patent US8987193B2.
